# Test system: P. aeruginosa (1051575)
# experimentNotes: MIC determination by microplate dilution, P. aeruginosa animal strain
# Type: cell-based, Pseudomonas aeruginosa
# experimentalConditions: Pseudomonas aeruginosa, Gram-negative, Mueller-Hinton medium, 24 h, 37° C.
recordedEndpoint: MIC (µg/mL)
Respond with the bare value in µg/mL.

1. COC(=O)CC[C@@H](C)[C@H]1CCC2C3C(CC[C@@]21C)[C@@]1(C)CC[C@H](NCCCN(CCCN)CCCN)CC1C[C@@H]3O (stereo partly drawn) [(52)]    30
2. CC(C)OC(=O)CC[C@@H](C)[C@H]1CCC2C3C(C[C@H](O)[C@@]21C)[C@@]1(C)CC[C@H](NCCN(CCN)CCN)CC1C[C@H]3O (stereo partly drawn) [(35)]    56

Let us move to another entry and its MIC.
# input Fill in the blank: the reported MIC of CC(C)OC(=O)CC[C@@H](C)[C@H]1CCC2C3C(CC[C@@]21C)[C@@]1(C)CC[C@H](NCCNCCNCCNCCNCCN)CC1C[C@H]3O (stereo partly drawn) [(23)] is ____.
# output 64

###

# Test system: P. aeruginosa (1051575)
# experimentNotes: MIC determination by microplate dilution, P. aeruginosa animal strain
# Assay type: cell-based, Pseudomonas aeruginosa
# experimentalConditions: Pseudomonas aeruginosa, Gram-negative, Mueller-Hinton medium, 24 h, 37° C.
# Description: 1) Preparation of the Preculture A negative control (2 mL of sterile culture medium) […] After 24 hours of incubation, a measurement of the optical density was taken using a spectrophotometer at 600 nm, collecting 100 μL of the bacterial suspension diluted in 900 μL of the sterile culture medium. This test required the use of a 96-well plate and the required volume of the microbial suspension to be seeded was calculated for an OD corresponding to a value equal to 0.01 in each well. […]
recordedEndpoint: MIC
The answer should read as a number with its unit following.

1. CC(C)OC(=O)CC[C@@H](C)[C@H]1CCC2C3C(C[C@H](O)[C@@]21C)[C@@]1(C)CC[C@H](NCCCNCCCN)CC1C[C@H]3O (stereo partly drawn) [(7), isopropyl 3β-norspermidinocholate]    30 µg/mL
2. CC(C)OC(=O)CC[C@@H](C)[C@H]1CCC2C3C(C[C@H](O)[C@@]21C)[C@@]1(C)CC[C@H](NCCCN(C)CCCN)CC1C[C@H]3O (some centres unmarked)    58 µg/mL

# input Fill in the blank: the reported MIC of CC(C)OC(=O)CC[C@@H](C)[C@H]1CCC2C3CCC4C[C@@H](NCCCNCCCNCCCN)CC[C@]4(C)C3C[C@H](O)[C@@]21C (stereo partly drawn) [Compound (1), isopropyl 3β-norsperminodeoxycholate] is ____.
# output 2 µg/mL

# input Please answer likewise for CC(C)OC(=O)CC[C@@H](C)[C@H]1CCC2C3C(CC[C@@]21C)[C@@]1(C)CC[C@H](NCCNCCNCCNCCNCCN)CC1C[C@@H]3O (some centres unmarked)
# output 130 µg/mL

# input Please answer likewise for CC(C)OC(=O)CC[C@@H](C)[C@H]1CCC2C3C(C[C@H](O)[C@@]21C)[C@@]1(C)CC[C@H](NCCCNCCCNCCCN)CC1C[C@H]3O (stereo partly drawn) [Compound (6), isopropyl 3β-norsperminocholate]
# output 30 µg/mL

###

# Test system: P. aeruginosa ATCC27853
# experimentNotes: MIC determination by microplate dilution, P. aeruginosa human strain
# Type: cell-based, Pseudomonas aeruginosa
# experimentalConditions: Pseudomonas aeruginosa, ATCC27853, Gram-negative, Mueller-Hinton medium, 24 h, 37° C.
The label 1.0 is reserved for MIC strictly under 30 µg/mL; 0.0 covers values equal to or above it.

1) COC(=O)CC[C@@H](C)[C@H]1CCC2C3CCC4C[C@@H](NCCCN(C)CCCN)CC[C@]4(C)C3C[C@H](O)[C@@]21C (stereo partly drawn) [(31)]    1.0

# input Field: below-cutoff. Rule: recorded MIC strictly less than 30 µg/mL. Subject: COC(=O)CC[C@@H](C)[C@H]1CCC2C3CCC4C[C@@H](NCCCN(CCCN)CCCN)CC[C@]4(C)C3C[C@H](O)[C@@]21C (stereo partly drawn) [(32)]
# output 1.0

# input Please answer likewise for CC(C)OC(=O)CC[C@@H](C)[C@H]1CCC2C3CCC4C[C@@H](NCCCNCCCN)CC[C@]4(C)C3CC[C@@]21C (stereo partly drawn) [(16), isopropyl 3β-norspermidinolithocholate]
# output 1.0

# input Please answer likewise for COC(=O)CC[C@@H](C)[C@H]1CCC2C3CCC4C[C@@H](NCCCNCCCNCCCN)CC[C@]4(C)C3CC[C@@]21C (stereo partly drawn) [Compound (17), methyl 3β-norsperminolithocholate]
# output 1.0

# input Please answer likewise for COC(=O)CC[C@@H](C)[C@H]1CCC2C3C(CC[C@@]21C)[C@@]1(C)CC[C@H](NCCCNCCCN)CC1C[C@H]3O (stereo partly drawn) [(9), methyl 3β-norspermidinochenodeoxycholate]
# output 1.0

# input Please answer likewise for COC(=O)CC[C@@H](C)[C@H]1CCC2C3C(CC[C@@]21C)[C@@]1(C)CC[C@H](NCCNCCNCCNCCNCCN)CC1C[C@@H]3O (stereo partly drawn) [(50)]
# output 0.0

###

# Test system: E. coli (1956)
# experimentNotes: MIC determination by microplate dilution, E. coli animal strain
# Assay type: cell-based, Escherichia coli
# experimentalConditions: Escherichia coli, Gram-negative, Mueller-Hinton medium, 24 h, 37° C.
Each record here notes measured log10(MIC).
Scale: decimal log of MIC, MIC in µg/mL.

Solved cases below.
1. CC(C)OC(=O)CC[C@@H](C)[C@H]1CCC2C3CCC4C[C@@H](NCCNCCNCCNCCNCCN)CC[C@]4(C)C3CC[C@@]21C (stereo partly drawn) [(26)]    1.78
2. COC(=O)CC[C@@H](C)[C@H]1CCC2C3CCC4C[C@@H](NCCCN(CCCN)CCCN)CC[C@]4(C)C3C[C@H](O)[C@@]21C (stereo partly drawn) [(32)]    1.48
3. COC(=O)CC[C@@H](C)[C@H]1CCC2C3C(CC[C@@]21C)[C@@]1(C)CC[C@H](NCCNCCNCCNCCNCCN)CC1C[C@H]3O (stereo partly drawn) [(22)]    0.90

# input Fill in the blank: the reported log10(MIC) of CC(C)OC(=O)CC[C@@H](C)[C@H]1CCC2C3C(CC[C@@]21C)[C@@]1(C)CC[C@H](NCCCN(CCCN)CCCN)CC1C[C@@H]3O (stereo partly drawn) [(42)] is ____.
# output 2.08

# input Please answer likewise for CC(C)OC(=O)CC[C@@H](C)[C@H]1CCC2C3C(CC[C@@]21C)[C@@]1(C)CC[C@H](NCCN(CCN)CCN)CC1C[C@H]3O (stereo partly drawn) [(40)]
# output 1.45

# input Please answer likewise for COC(=O)CC[C@@H](C)[C@H]1CCC2C3C(CC[C@@]21C)[C@@]1(C)CC[C@H](NCCCNCCCNCCCN)CC1C[C@H]3O (stereo partly drawn) [Compound (8), methyl 3β-norsperminochenodeoxycholate]
# output 1.46

###

Each record here notes measured IC50.
# System: CHO-K1 cells
# experimentNotes: WST1 cytotoxicity test on CHO-K1 cells
# Format: cell-based, Chinese hamster
# experimentalConditions: Cricetulus griseus; Table III; WST1, CHO-K1 cells, 24 h; concentration reducing cell viability by 50%; read-out: IC50 (μg/mL) CHO
Respond with the bare value in µg/mL.

Solved cases below.
1. COC(=O)CC[C@@H](C)[C@H]1CCC2C3CCC4C[C@@H](NCCNCCNCCNCCNCCN)CC[C@]4(C)C3CC[C@@]21C (some centres unmarked)    76
2. COC(=O)CC[C@@H](C)[C@H]1CCC2C3CCC4C[C@@H](NCCCN(CCCN)CCCN)CC[C@]4(C)C3CC[C@@]21C (some centres unmarked)    30
3. COC(=O)CC[C@@H](C)[C@H]1CCC2C3C(C[C@H](O)[C@@]21C)[C@@]1(C)CC[C@H](NCCCN(C)CCCN)C[C@H]1C[C@H]3O (some centres unmarked)    126
4. COC(=O)CC[C@@H](C)[C@H]1CCC2C3CCC4C[C@@H](NCCCNCCCNCCCN)CC[C@]4(C)C3CC[C@@]21C (stereo partly drawn) [Compound (17), methyl 3β-norsperminolithocholate]    14

Let us move to another entry and its IC50.
# input Fill in the blank: the reported IC50 of COC(=O)CC[C@@H](C)[C@H]1CCC2C3CCC4C[C@@H](NCCCN(C)CCCN)CC[C@]4(C)C3CC[C@@]21C (some centres unmarked) is ____.
# output 46

###

# System: P. aeruginosa (1051575)
# experimentNotes: MIC determination by microplate dilution, P. aeruginosa animal strain
# Type: cell-based, Pseudomonas aeruginosa
# experimentalConditions: Pseudomonas aeruginosa, Gram-negative, Mueller-Hinton medium, 24 h, 37° C.
# Procedure: 1) Preparation of the Preculture A negative control (2 mL of sterile culture medium) […] After 24 hours of incubation, a measurement of the optical density was taken using a spectrophotometer at 600 nm, collecting 100 μL of the bacterial suspension diluted in 900 μL of the sterile culture medium. This test required the use of a 96-well plate and the required volume of the microbial suspension to be seeded was calculated for an OD corresponding to a value equal to 0.01 in each well. […]
Each record here notes measured MIC.
The answer should read as a number with its unit following.

1) COC(=O)CC[C@@H](C)[C@H]1CCC2C3C(CC[C@@]21C)[C@@]1(C)CC[C@H](NCCCNCCCNCCCN)CC1C[C@@H]3O (stereo partly drawn) [Compound (12), methyl 3β-norsperminoursodeoxycholate]    7 µg/mL
2) CC(C)OC(=O)CC[C@@H](C)[C@H]1CCC2C3CCC4C[C@@H](NCCCNCCCN)CC[C@]4(C)C3C[C@H](O)[C@@]21C (stereo partly drawn) [Compound (2), isopropyl 3β-norspermidinodeoxycholate]    14 µg/mL
3) COC(=O)CC[C@@H](C)[C@H]1CCC2C3C(CC[C@@]21C)[C@@]1(C)CC[C@H](NCCCNCCCNCCCN)CC1C[C@H]3O (stereo partly drawn) [Compound (8), methyl 3β-norsperminochenodeoxycholate]    7 µg/mL
4) CC(C)OC(=O)CC[C@@H](C)[C@H]1CCC2C3C(CC[C@@]21C)[C@@]1(C)CC[C@H](NCCN(CCN)CCN)CC1C[C@@H]3O (some centres unmarked) [(43)]    14 µg/mL

Let us move to another entry and its MIC.
# input Fill in the blank: the reported MIC of CC(C)OC(=O)CC[C@@H](C)[C@H]1CCC2C3C(CC[C@@]21C)[C@@]1(C)CC[C@H](NCCCNCCCN)CC1C[C@@H]3O (some centres unmarked) [Compound (14)] is ____.
# output 110 µg/mL
